TARGET_OF_ASSAY: human mAChR M4 (Homo sapiens)
Construct: expressed in transfected cells; host or cells: CHO-K1 (ATCC), stably co-expressing the chimeric G protein Gqi5
Sequence (P08173 whole entry): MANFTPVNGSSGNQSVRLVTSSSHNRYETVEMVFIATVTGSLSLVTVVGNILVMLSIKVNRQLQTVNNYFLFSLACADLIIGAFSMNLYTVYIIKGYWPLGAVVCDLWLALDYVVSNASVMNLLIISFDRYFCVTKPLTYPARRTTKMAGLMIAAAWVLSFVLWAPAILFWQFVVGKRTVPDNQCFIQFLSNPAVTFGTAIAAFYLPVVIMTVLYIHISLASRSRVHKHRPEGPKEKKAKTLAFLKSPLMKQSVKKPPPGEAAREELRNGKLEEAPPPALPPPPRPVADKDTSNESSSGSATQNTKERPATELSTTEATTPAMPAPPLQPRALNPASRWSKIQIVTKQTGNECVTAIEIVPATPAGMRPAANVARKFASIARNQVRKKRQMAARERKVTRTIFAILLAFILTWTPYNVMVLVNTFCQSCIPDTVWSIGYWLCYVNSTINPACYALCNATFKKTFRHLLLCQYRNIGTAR
EXPERIMENT: mAChR M4 cell-based functional assay (calcium flux, decrease of EC80 acetylcholine response)
CONDITION_NOTES: % ACh maximum at 30 μM; human M4; read-out: Emin
I'd appreciate it if you marked entries satisfied when remaining activity at 30 µM is lower than 6% and not satisfied when it is not.

Example entries begin here.
Cc1cnn(C)c1-c1ccc(NCC2CC3(C2)CN(CCC(C)(C)C)C3)nn1 ... not satisfied
CC(=O)Nc1ccc(-c2ccc(NCC3CC4(C3)CN(CC3CC5C=CC3C5)C4)nn2)cc1 (stereo not shown) ... not satisfied
Cc1nn(C)cc1-c1ccc(NC2CC3(C2)CN(CCC(C)(C)C)C3)nn1 ... not satisfied
Fc1ccc(Cl)c(-c2ccc(NC3CC4(C3)CN(CC3CCCOC3)C4)nn2)c1 (stereo not shown) ... satisfied
CC(=O)Nc1ccc(-c2ccc(NCC3CC4(C3)CN(CCC(C)(C)C)C4)nn2)cc1 ... not satisfied
CC(C)(C)CCN1CC2(CC(Nc3ccc(-c4cc(F)ccc4Cl)nn3)C2)C1 ... satisfied
Cc1nn(C)cc1-c1ccc(OCC2CC3(C2)CN(CCC(C)(C)C)C3)nn1 ... satisfied
Cc1nn(C)cc1-c1ccc(NCC2CC3(C2)CN(CCC(C)(C)C)C3)nn1 ... not satisfied
Fc1ccc(Cl)c(-c2ccc(NC3CC4(C3)CN(CC35CC6CC(CC(C6)C3)C5)C4)nn2)c1 ... satisfied
CC(=O)Nc1ccc(-c2ccc(NC3CC4(C3)CN(CCC(C)(C)C)C4)nn2)cc1 ... not satisfied

Ask | Strictly below 6% in remaining activity at 30 µM? Fc1ccc(Cl)c(-c2ccc(NC3CC4(C3)CN(CC3CC5C=CC3C5)C4)nn2)c1 (stereo not shown)
Reply | satisfied

Ask | Is it true that remaining activity at 30 µM reported for Cc1nn(C)cc1-c1ccc(NCC2CC3(C2)CN(CC2CC4C=CC2C4)C3)nn1 (stereo not shown) is less than 6%?
Reply | satisfied
